src = patent US6410054B1

assay: Single dose study: plasma pharmacokinetics of eplerenone, open lactone ring form, spironolactone; settings: male, human, plasma, po, 300 mg
test-readout: concentration at 6 h (ng/mL)
Write the answer as a number in ng/mL, unit excluded.

Recorded concentration at 6 h of COC(=O)C1CC2=CC(=O)CCC2(C)C23OC2CC2(C)C(CC[C@@]24CCC(=O)O4)C13 (stereo partly shown) , please.
1270

* * *

Assay: Single dose study: plasma pharmacokinetics of eplerenone, open lactone ring form, spironolactone
Conditions: male, human, plasma, po, 100 mg
Experimental: The pharmacokinetics, safety and antialdosterone activity of single 10, 50, 100, 300 and 1000 mg oral doses of eplerenone were evaluated in a single-center, randomized, double-blind, placebo-controlled study. The study employed seven parallel dose groups of eight healthy male humans. The eplerenone capsules administered corresponded to the capsules (or combinations of the capsules) disclosed in Examples 4, 5, 7 and 8 above. The placebo was a conventional capsule containing lactose. […]
test-readout: concentration at 24 h (µg/mL)
Report the figure in µg/mL without appending any unit label.

Which measured concentration at 24 h value corresponds to COC(=O)C1CC2=CC(=O)CCC2(C)C23OC2CC2(C)C(CC[C@@]24CCC(=O)O4)C13 (stereo partly shown) [eplerenone] ?
0.0131
